I'd be grateful if you could share measured inhibition at 10 µg/mL for these entries.
System: Human immunodeficiency virus 1
Assay: Antiviral activity against HIV1 SG3.1 infected in human TZM-bl cells assessed as inhibition of viral replication at 10 ug/ml measured after 48 hrs by single round viral infectivity assay based Steady-Glo luciferase assay
Assay type: functional
Settings: Human immunodeficiency virus 1, SG3.1, TZM-bl
Express your answer in %, writing the number without its unit.

Fill blank: measured inhibition at 10 µg/mL of the compound CC1(C)S[C@H]2N(C(=O)C23C(C(=O)OCc2ccccc2)=CCC3C(=O)c2ccccc2)[C@H]1C(=O)O (stereo partly drawn) is ____.
0

Here is the next compound: CC1(C)S[C@H]2N(C(=O)C23C[C@@H]2CN=N[C@]2(C(=O)OCc2ccccc2)C3C(=O)c2ccccc2)[C@H]1C(=O)OC(c1ccccc1)c1ccccc1 (stereo partly drawn)
0

Here is the next compound: COC(=O)C1=CCC(C(=O)c2ccccc2)C12C(=O)N1[C@@H](C(=O)OC(c3ccccc3)c3ccccc3)C(C)(C)S[C@@H]12 (stereo partly drawn)
0

---

Experiment: Cytotoxicity against human TZM-bl cells assessed as reduction in cell viability by AlamarBlue assay
Type: cell-based
PROPERTY_NAME: CC50
Provide a numeric answer, followed by its unit.

Fill blank: measured CC50 of the compound COC(=O)C1=CC2(N=N1)C(=O)N1[C@@H](C(=O)OC)C(C)(C)S[C@@H]12 (some centres undefined) is ____.
89.8 µM

Here is the next compound: COC(=O)C1=CC2(N=N1)C(=O)N1[C@@H](C(=O)NO)C(C)(C)S[C@@H]12 (some centres undefined)
76.8 µM

Here is the next compound: CC1(C)S[C@H]2N(C(=O)C23CC=C(C(=O)OCc2ccccc2)C3C(=O)OCc2ccccc2)[C@H]1C(=O)OC(c1ccccc1)c1ccccc1 (some centres undefined)
43.2 µM

Here is the next compound: CC1(C)S[C@H]2N(C(=O)C23C[C@@H]2CN=N[C@]2(C(=O)OCc2ccccc2)C3C(=O)c2ccccc2)[C@H]1C(=O)OC(c1ccccc1)c1ccccc1 (some centres undefined)
41.8 µM

---

I'd be grateful if you could share measured inhibition at 10 µg/mL for these entries.
System: Human immunodeficiency virus 1
Assay: Antiviral activity against HIV1 SG3.1 infected in human TZM-bl cells assessed as inhibition of viral replication at 10 ug/ml measured after 48 hrs by single round viral infectivity assay based Steady-Glo luciferase assay
Format: functional
Details: Human immunodeficiency virus 1, SG3.1, TZM-bl
Express your answer in %, writing the number without its unit.

Fill blank: measured inhibition at 10 µg/mL of the compound CC1(C)S[C@H]2N(C(=O)C23C=C(C(=O)Oc2ccc4ccccc4c2)N=N3)[C@H]1C(=O)O (some centres not stated) is ____.
0

Here is the next compound: CCOC(=O)C1=CCC2(C(=O)N3[C@@H](C(=O)OC(c4ccccc4)c4ccccc4)C(C)(C)S[C@@H]32)C1C(=O)c1ccccc1 (some centres not stated)
99

Here is the next compound: COC(=O)[C@@H]1N2C(=O)C3(C(C(=O)OCc4ccccc4)=CCC3C(=O)c3ccccc3)[C@H]2SC1(C)C (some centres not stated)
0

Here is the next compound: CC1(C)S[C@H]2N(C(=O)C23N=NC(C(=O)OC(c2ccccc2)c2ccccc2)=C3C(=O)OC(c2ccccc2)c2ccccc2)[C@H]1C(=O)OC(c1ccccc1)c1ccccc1 (some centres not stated)
0

Here is the next compound: CC1(C)S[C@H]2N(C(=O)C23C=C(C(=O)Oc2ccc4ccccc4c2)N=N3)[C@H]1C(=O)OC(c1ccccc1)c1ccccc1 (some centres not stated)
0

Here is the next compound: CC(C)(C)OC(=O)C1=CC2(N=N1)C(=O)N1[C@@H](C(=O)OC(c3ccccc3)c3ccccc3)C(C)(C)S[C@@H]12 (some centres not stated)
0

Here is the next compound: COC(=O)C1=CCC2(C(=O)N3[C@@H](C(=O)OC(c4ccccc4)c4ccccc4)C(C)(C)S[C@@H]32)C1C(=O)c1ccccc1 (some centres not stated)
99
